Reported koff values for a set of binders
- Tested target: T1, CD70 ECD (antigen immobilized on the CM5 chip) (UniProt P32970 39-193)
- T1 construct: extracellular domain; also called CD70 antigen
- T1 sequence (looked up): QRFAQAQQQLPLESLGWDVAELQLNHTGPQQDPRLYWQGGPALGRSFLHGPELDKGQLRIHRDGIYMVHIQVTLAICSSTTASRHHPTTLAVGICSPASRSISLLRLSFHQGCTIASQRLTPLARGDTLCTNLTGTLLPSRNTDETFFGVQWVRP
- Assay protocol: SPR (Biacore T200), CD70 ECD on CM5 chip, IgG as analyte
Give the value, in units of s⁻¹, as a plain number.

Example binders with recorded koff:
{"Binder": "2D2, full IgG (antibody, V domains shown) VH: QVQLQESGPGLVKPSETLSLTCTVSGGSVSSDYYYWSWIRQPPGKGLEWLGYIYYSGSTNYNPSLKSRVTISVDTSKNQFSLKLRSVTTADTAVYYCARGDGDYGGNCFDYWGQGTLVTVSS VL: EIVLTQSPATLSLSPGERATLSCRASQSVSSYLAWYQQKPGQAPRLLIFDASNRATGIPARFSGSGSGTDFTLTISSLEPEDFAVYYCQQRLKFPLTFGGGTKVEIK", "Data value": 0.00105}
{"Binder": "1H8, full IgG (antibody, V domains shown) VH: QVQLQESGPGLVKPSETLSLTCTVSGGSVSSDYYYWSWIRQPPGKGLEWLGYIYYSGSTNYNPSLKSRVTISVDTSKNQFSLKLRSVTTADTAVYYCARGDGDFMGVCFDYWGQGTLVTVSS VL: EIVLTQSPATLSLSPGERATLSCRASQSVSSYLAWYQQKPGQAPRLLIFDASNRATGIPARFSGSGSGTDFTLTISSLEPEDFAVYYCQQRSNWPLTFGGGTKVEIK", "Data value": 0.00112}

Now let's try a different one.
For record 1F6 (Vorsetuzumab), reference antibody, full IgG (antibody, V domains shown, also called h1F6; h1 F6) VH: QVQLVQSGAEVKKPGASVKVSCKASGYTFTNYGMNWVRQAPGQGLKWMGWINTYTGEPTYADAFKGRVTMTRDTSISTAYMELSRLRSDDTAVYYCARDYGDYGMDYWGQGTTVTVSS VL: DIVMTQSPDSLAVSLGERATINCRASKSVSTSGYSFMHWYQQKPGQPPKLLIYLASNLESGVPDRFSGSGSGTDFTLTISSLQAEDVAVYYCQHSREVPWTFGQGTKVEIK the listed koff is 0.00236

These data points were gathered from patent US20250066490A1.
